Tested on: human PKK mRNA
measurement.protocol: Dose-dependent antisense inhibition of human PKK in HepaRG cells, 0.12-10.00 uM (Example 4)
Assay type: cell-based
measurement.setup: Table 32, 0.37 μM, electroporation, ~16 h
Strand notation (5' to 3'): a small letter for the sugar, then the base; units joined by * are phosphorothioate-linked, units joined directly phosphodiester-linked; [ ] holds rarer units or linkages, { } end groups; capitals alone tell only the bases. e = 2'-O-(2-methoxyethyl) (MOE); [5mC] = 5-methylcytosine; d = 2'-deoxy (DNA)
Please go through the items and note down their percent inhibition of PKK at 0.37 μM.
Just so you know, I need the unit written after the number.

stdin: What percent inhibition of PKK at 0.37 μM appears in the records for this substance with human PKK mRNA? 531004 (eA*eG*eA*eG*eT*dA*dA*d[5mC]*d[5mC]*dA*dG*dA*dG*d[5mC]*dT*e[5mC]*e[5mC]*e[5mC]*eT*eT; antisense) [compound 531004]
stdout: 14%

stdin: For human PKK mRNA, provide percent inhibition of PKK at 0.37 μM of 531005 (e[5mC]*eT*e[5mC]*eA*eA*dA*dG*dA*dG*dT*dA*dA*d[5mC]*d[5mC]*dA*eG*eA*eG*e[5mC]*eT; antisense) [compound 531005] please.
stdout: 28%

stdin: For the record 530967 (antisense e[5mC]*eA*eA*e[5mC]*e[5mC]*dA*dA*dT*dT*dT*d[5mC]*dT*dG*dA*dA*eA*eG*eG*eG*e[5mC]) [compound 530967] , what value of percent inhibition of PKK at 0.37 μM is listed for human PKK mRNA?
stdout: 36%

stdin: GET /values?readout=percent inhibition of PKK at 0.37 μM&system=human PKK mRNA&item= 530992 (eG*eT*e[5mC]*eA*e[5mC]*dA*dT*dT*d[5mC]*dA*dA*dT*dT*d[5mC]*dT*eT*e[5mC]*eT*e[5mC]*e[5mC]; antisense) [compound 530992]
stdout: 50%

stdin: # value lookup — system human PKK mRNA, readout percent inhibition of PKK at 0.37 μM, item 531078 (eA*eG*e[5mC]*eA*eG*d[5mC]*dT*d[5mC]*dT*dG*dA*dG*dT*dG*d[5mC]*eA*e[5mC]*eT*eG*eT; antisense) [compound 531078]
stdout: 27%

----------
Assignment: determine reported percent inhibition of PKK at 1.11 μM for the given substances.
System: human PKK mRNA
measurement.protocol: Dose-dependent antisense inhibition of human PKK in HepaRG cells, 0.12-10.00 uM (Example 4)
Format: cell-based
measurement.setup: Table 33, 1.11 μM, electroporation, ~16 h
Strand notation (5' to 3'): a small letter for the sugar, then the base; units joined by * are phosphorothioate-linked, units joined directly phosphodiester-linked; [ ] holds rarer units or linkages, { } end groups; capitals alone tell only the bases. e = 2'-O-(2-methoxyethyl) (MOE); [5mC] = 5-methylcytosine; d = 2'-deoxy (DNA)
Write down the numeric answer in % and omit the unit.

stdin: Record request: percent inhibition of PKK at 1.11 μM value, item 531026 (antisense eA*eT*e[5mC]*eA*eT*dG*dA*dT*dT*d[5mC]*d[5mC]*d[5mC]*dT*dT*d[5mC]*eT*eG*eA*eG*eA) [compound 531026]
stdout: 49

stdin: Any idea what its percent inhibition of PKK at 1.11 μM is? The substance is 531121 (antisense eT*eT*eG*eG*eT*d[5mC]*dT*dA*d[5mC]*dA*dG*dA*dT*dT*d[5mC]*eA*eA*eT*eG*e[5mC]) [compound 531121]
stdout: 47

stdin: Which percent inhibition of PKK at 1.11 μM is reported for this substance? 531232 (e[5mC]*eT*eG*eT*eA*d[5mC]*dT*dA*dG*dT*dT*dT*d[5mC]*d[5mC]*dT*eA*eT*eA*eA*e[5mC]; antisense) [compound 531232]
stdout: 40

stdin: Entry 531071 (e[5mC]*eT*eG*e[5mC]*eT*d[5mC]*dT*dG*dT*dG*dT*dT*dT*dT*d[5mC]*eT*e[5mC]*eT*eA*eA; antisense) [compound 531071] has what percent inhibition of PKK at 1.11 μM?
stdout: 56

stdin: # input substance: 531110 (antisense eG*e[5mC]*e[5mC]*eT*eG*dT*dT*dT*dG*dG*dT*dG*dG*dT*d[5mC]*eT*e[5mC]*eT*eT*e[5mC]) [compound 531110] ; wanted: its percent inhibition of PKK at 1.11 μM
stdout: 49

stdin: Given the substance 531123 (antisense eT*e[5mC]*e[5mC]*e[5mC]*eA*dG*d[5mC]*dT*d[5mC]*d[5mC]*dA*dG*dT*d[5mC]*dA*e[5mC]*e[5mC]*eA*e[5mC]*e[5mC]) [compound 531123] , what is its reported percent inhibition of PKK at 1.11 μM?
stdout: 51

stdin: Fill blank: measured percent inhibition of PKK at 1.11 μM of the substance 531198 (eG*eG*eG*eA*eT*dT*dT*dT*dG*d[5mC]*dT*dG*dA*dA*dG*e[5mC]*eT*eG*eG*eT; antisense) [compound 531198] is ____.
stdout: 62

stdin: May I ask what percent inhibition of PKK at 1.11 μM has been recorded for 531069 (e[5mC]*e[5mC]*eA*eG*eT*d[5mC]*d[5mC]*dA*dT*dG*dT*dA*d[5mC]*dT*d[5mC]*eA*eG*e[5mC]*eG*eA; antisense) [compound 531069] ?
stdout: 48

stdin: Which percent inhibition of PKK at 1.11 μM is reported for this substance? 531172 (antisense eT*eT*e[5mC]*eA*eA*dG*d[5mC]*d[5mC]*dT*dG*dG*dG*d[5mC]*dA*dG*e[5mC]*eA*e[5mC]*eA*eG) [compound 531172]
stdout: 37

stdin: Sample 531231 (eT*eA*eT*e[5mC]*eA*d[5mC]*dT*dG*dT*dA*d[5mC]*dT*dA*dG*dT*eT*eT*e[5mC]*e[5mC]*eT) [compound 531231] — what was its percent inhibition of PKK at 1.11 μM?
stdout: 36

stdin: Request the reported percent inhibition of PKK at 1.11 μM associated with 531055 (antisense e[5mC]*e[5mC]*e[5mC]*eT*eT*d[5mC]*dT*dT*dT*dA*dT*dA*dG*d[5mC]*d[5mC]*eA*eG*e[5mC]*eA*e[5mC]) [compound 531055]
stdout: 64

Value source: patent US11840686B2
